# SYSTEM_NAME: T1, human ROR1 (full-length, on the cell surface) (human, UniProt Q01973 30-937)
# T1 construct: whole, on cells; the tumour cell lines carry their own ROR1; also called Ba/F3-ROR1 cells; Jeko-1
# EXPERIMENT: flow cytometry, HT-29 cells
# Description: The affinities of the anti-human ROR1 humanized antibodies to Ba/F3-ROR1, Jeko-1, HT-29 and A549 cells were detected by flow cytometry. The specific experimental steps were as follows: the BaBF3-ROR1, Jeko-1, HT-29 and A549 cells were incubated with the purified humanized antibodies of different concentration gradients on ice for 30 minutes, and the anti-ROR1 antibody UC961 with human IgG1 and the anti-TNP antibody were used as positive and negative controls, respectively.
The label 1 is reserved for EC50 strictly under 200 pM; -1 covers values equal to or above it.

BINDER	GROUP
38F8-Hu28 (antibody, human IgG1, kappa, V domains shown, humanized, human IgG1 / kappa) VH: EVQLVESGGGLVQPGGSLRLSCAASGFTFSNYAMSWVRQAPGKGLEWVASISSGGPTYYPDSVKGRFTVSRDNSKNTLYLQMNSLRAEDTAVYYCARGYRYDVNWYFDVWGAGTMVTVSS VL: DIQMTQSPSSLSASVGDRVTITCQASQDINSYLTWFQQKPGKSPKTLIHRANRLVTGVPSRFSGSGSGTDYTFTISSLQPEDIAIYYCLQYDEFPYTFGGGTKVEIKR	-1
38F8-Hu57 (antibody, human IgG1, kappa, V domains shown, humanized, human IgG1 / kappa) VH: EVQLVESGGGLVQPGGSLRLSCAASGFTFSNYAMSWVRQAPEKRLEWVASISSGGPTYYPDSVKGRFTVSRDNSKNTLYLQMNSLRAEDTAVYYCARGYRYDVNWYFDVWGAGTMVTVSS VL: DIQMTQSPSSLSASVGDRVTITCQASQDISNYLTWFQQKPGKSPKTLIHRANRLVTGVPSRFSGSGSGTDYTFTISSLQPEDIAIYYCLQYDEFPYTFGGGTKVEIKR	-1
19F6-Hu35V4 (antibody, human IgG1, kappa, V domains shown, humanized, human IgG1 / kappa) VH: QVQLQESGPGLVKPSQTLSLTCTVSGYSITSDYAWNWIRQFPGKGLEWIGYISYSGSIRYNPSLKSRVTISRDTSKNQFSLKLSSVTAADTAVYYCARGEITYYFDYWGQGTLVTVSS VL: ETTLTQSPAFMSATPGDKVTISCKASTSIDNDMNWYQQKPGKPPKLIISEGNTLRPGIPPRFSSSGYGTDFTFTINKIESEDAATYYCLQSNDLPLTFGQGTKLEIKR	-1
19F6-Hu35 (antibody, human IgG1, kappa, V domains shown, humanized, human IgG1 / kappa) VH: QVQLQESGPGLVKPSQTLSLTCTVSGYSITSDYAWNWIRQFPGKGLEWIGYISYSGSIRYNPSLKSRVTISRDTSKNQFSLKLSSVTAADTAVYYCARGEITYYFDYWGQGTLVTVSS VL: ETTLTQSPAFMSATPGDKVTISCKASTDIDDDMNWYQQKPGEPPKLIISEGNTLRPGIPPRFSSSGYGTDFTFTINNIESEDAADYYCLQSNDLPLTFGQGTKLEIKR	1

Shifting focus to the binder that follows.
Record 19F6-Hu35V9 (antibody, human IgG1, kappa, V domains shown, humanized, human IgG1 / kappa) VH: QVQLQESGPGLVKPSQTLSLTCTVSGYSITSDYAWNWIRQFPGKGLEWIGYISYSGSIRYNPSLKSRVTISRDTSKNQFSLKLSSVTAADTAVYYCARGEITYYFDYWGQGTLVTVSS VL: ETTLTQSPAFMSATPGDKVTISCKASTSIDDDMNWYQQKPGKPPKLIISEGNTLRPGIPPRFSSSGYGTDFTFTIRKIESEDAADYYCLQSNDLPLTFGQGTKLEIKR : is its EC50 strictly below 200 pM? 1

The origin of these recorded values is patent US20240018237A1.
